All values here come from patent EP4596561A1.

Each item that follows carries a reported half-life.
- Experiment Description: Pharmacokinetic test in mice (low dose)
- Format: in vivo, Balb/c mice
- Protocol Conditions: mouse, in vivo; mice, IV 2 mg/kg; read-out: T1/2 (converted)

{"columns": ["Compound Structure String", "half-life (h)"],
 "data": [
  ["CP(C)(=O)c1ccc2c(c1)c1ccccc1n2-c1ccc(C(F)(F)F)cc1", 4.2],
  ["Cn1cnc(-c2cc(P(C)(C)=O)ccc2Nc2ccc(C(F)(F)F)cc2)c1", 19],
  ["Cc1ccc(Oc2ccc(C(F)(F)F)cc2)c2ccc(P(C)(C)=O)cc12", 11],
  ["CP(C)(=O)c1ccc2c(Oc3ccc(C(F)(F)F)cc3)cccc2c1", 120],
  ["Cn1cc2c3cc(P(C)(C)=O)ccc3n(-c3ccc(C(F)(F)F)cc3)c2n1", 2.7],
  ["Cn1cnc(-c2cc(P(C)(C)=O)cnc2Nc2ccc(C(F)(F)F)cc2)c1", 5.6],
  ["CP(C)(=O)c1cnc(Oc2ccc(C(F)(F)F)cc2)c(-c2cn3c(n2)CCC3)c1", 1.4],
  ["CP(C)(=O)c1cnc(Nc2ccc(C(F)(F)F)cc2)c(-c2cn3c(n2)CCC3)c1", 8.9]
]}
